Just for reference, patent US20220162261A1 is where these values come from.

- Assay Target: T1, human α4β7 integrin on cells (human, UniProt P13612 34-1032; P26010 20-798)
- T1 construct: whole, on cells; also called α4β7 cell (Hu); RPMI8866 cells
- Assay Comment: RPMI8866 cell adhesion to MAdCAM-1
Bridge positions count the residues as written; N and C are the ends. Square brackets hold non-standard residues; d marks the D form. Ends that are not written are not given here. * marks the point of attachment. Phe(4-tBu) = CC(C)(C)c1ccc(C[C@H](N)C(=O)O)cc1; Phe(2-CONH2) = NC(=O)c1ccccc1C[C@H](N)C(=O)O; Oleoyl = CCCCCCCC/C=C\CCCCCCCC(=O)*; NMeR = CN[C@@H](CCCNC(=N)N)C(=O)O; β3hE = N[C@@H](CCC(=O)O)CC(=O)O; Pen = CC(C)(S)[C@H](N)C(=O)O
The following binders are shown together with reported IC50 values.

These solved cases illustrate the format of a correct answer.
[[record]]
binder = "Ac-[Pen][NMeR]SDTL[Pen][Phe(2-CONH2)][dE][dK]-NH2 (disulfide 1-7; not fully specified (residue 10); printed as (Ac Pen N-Me-R S D T L Pen F(2-carbamoyl) e k NH2)2 DIG, disulfide Pen-Pen; also: homodimer (…)2 DIG: the two subunits are joined through the K10 NZ by the DIG linker) [SEQ ID NO: 98]"
recorded_result = "> 50 nM"

[[record]]
binder = "Ac-[Pen][NMeR]SDTL[Pen][Phe(4-tBu)][β3hE][dK](Oleoyl) (disulfide 1-7) [SEQ ID NO: 174]"
recorded_result = "> 1000 nM"


Input: Specify IC50 for Ac-[Pen][NMeR]SDTL[Pen]WD[dK]-NH2 (disulfide 1-7; not fully specified (residue 10); printed as (Ac Pen N-Me-R S D T L Pen W D k NH2)2 DIG, disulfide Pen-Pen; also: homodimer: two subunits linked by DIG via D-Lys10 side chain) [SEQ ID NO: 87] and stop.
Output: > 25 nM
